# System: Staphylococcus aureus
# test.method.notes: In vitro antibacterial activity against S. a. 213 (Staphylococcus. aureus ATCC 49951)
# Assay type: functional
Entries annotated with measured MIC

| structure.smiles.string | MIC [µg/mL] |
| --- | --- |
| C/C(S)=N/NC[C@H]1CN(c2ccc(OCCN3CCOCC3)c(F)c2)C(=O)O1 | 2 |
| CC(=O)NNC[C@H]1CN(c2ccc(OCCN3CCCCC3)c(F)c2)C(=O)O1 | 64 |
| CO/C(S)=N/NC[C@H]1CN(c2ccc(OCCN3CCOCC3)c(F)c2)C(=O)O1 | 4 |
| CC(=O)NNC[C@H]1CN(c2ccc(OCCN3CCOCC3)c(F)c2)C(=O)O1 | 16 |
| C/C(S)=N/NC[C@H]1CN(c2ccc(OCCN3CCCCC3)c(F)c2)C(=O)O1 | 8 |
| C/C(S)=N/NC[C@H]1CN(c2ccc(OCCN3CCSCC3)c(F)c2)C(=O)O1 | 2 |
| CC(=O)NNC[C@H]1CN(c2ccc(OCCN3CCSCC3)c(F)c2)C(=O)O1 | 16 |
| CO/C(S)=N/NC[C@H]1CN(c2ccc(OCCN3CCSCC3)c(F)c2)C(=O)O1 | 4 |
